Target: T1, Human TNFR2-His (Sino 10417-H08H) (human, UniProt P20333 23-257)
T1 construct: Bought protein; also called recombinant human TNFR2 protein; not shown: His tag
T1 sequence (looked up): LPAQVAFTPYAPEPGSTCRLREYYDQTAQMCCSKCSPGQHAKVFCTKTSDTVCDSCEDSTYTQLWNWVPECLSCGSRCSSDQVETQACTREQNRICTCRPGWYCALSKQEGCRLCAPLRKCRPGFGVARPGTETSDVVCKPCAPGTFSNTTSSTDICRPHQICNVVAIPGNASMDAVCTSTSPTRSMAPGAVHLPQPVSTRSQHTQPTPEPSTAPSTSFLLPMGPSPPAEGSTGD
Experiment: SPR (Biacore T200), antibody captured on Protein A chip
measurement.type: pKd
A value of pKd is the negative decimal logarithm of a concentration given in moles per litre.

binder="224-Hu3 (antibody, V domains shown, Humanized form of #224; also called VH9 + VL8) VH: QVQLVQSGSELKKPGASVKVSCKASGFNNKDIYMHWVRQAPGQGLEWMGRIDPATGNTKHDPKFQDKAVLSSDTSVSTAYLQISSLKAEDTAVYYCARSPYGDFGAMDYWGQGTLVTVSS VL: DIQMTQSPSSLSASVGDRVTITCTASSSVSSNYLHWYQQKPGKAPKLLIYSTSNLPSGVPSRFSGSGSGTDFTLTISSLQAEDAATYYCHQYHRSPWTFGQGTKVEIK" quantitative_result=8.39
binder="224-Hu7 (antibody, V domains shown, Humanized form of #224; also called VH9 + VL10) VH: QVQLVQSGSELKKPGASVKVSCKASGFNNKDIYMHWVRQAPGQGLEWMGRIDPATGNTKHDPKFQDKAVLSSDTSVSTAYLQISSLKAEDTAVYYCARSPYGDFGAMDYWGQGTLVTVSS VL: DIQMTQSPSSLSASVGDRVTITCTASSSVSSNYLHWYQQKPGKAPKLLIYSTSNLPSGVPSRFSGSGSGTDFTLTISSLQPEDFATYYCHQYHRSPWTFGQGTKVEIK" quantitative_result=8.25
binder="001-Hu3 (antibody, V domains shown, Humanized form of #001; also called VH1 + VL3) VH: EVQLVESGGGLVQPGGSLRLSCAASGFAFSTYDLSWVRQAPGKGLEWVAYINNGGISTYYSDTVKGRFTISRDNAKNTLYLQMNSLRAEDTAVYYCVRGPFYGSANYFDYWGQGTLVTVSS VL: DIQMTQSPSSLSASVGDRVTITCRTSESIYSNLPWYQQKPGKAPKLLIYDATKLAEGVPSRFSGSGSGTDYTLTISSLQPEDFATYYCQHFWVTPWTFGQGTKVEIK" quantitative_result=9.43
binder="219-Hu1 (antibody, V domains shown, also called VH3 + VL5) VH: QVQLVQSGAEVKKPGASVKVSCKASGYSFTNYWMNWVRQAPGQRLEWMGMIHPSDTETRLNQNFKDRVTITRDTSASTAYMELSSLRSEDTAVYYCARGEGLGAARSVSMDYWGQGTLVTVSS VL: DIQMTQSPSSLSASVGDRVTITCRASQDISNYLNWYQQKPDGTVKLLIYYTAILHSGVPSRFSGSGSGTDYSLTISSLQPEDFATYFCQQGNTLPWTFGQGTKVEIK" quantitative_result=9.45

For the next question, use this binder.
So, 001-Hu1 (antibody, V domains shown, Humanized form of #001; also called VH1 + VL1) VH: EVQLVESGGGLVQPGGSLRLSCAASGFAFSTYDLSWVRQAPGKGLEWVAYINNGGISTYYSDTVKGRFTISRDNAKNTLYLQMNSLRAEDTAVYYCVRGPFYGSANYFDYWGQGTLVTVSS VL: DIQMTQSPSSLSASVGDRVTITCRTSESIYSNLPWYQQKPGKAPKLLLYDATKLAEGVPSRFSGSGSGTDYTLTISSLQPEDFATYYCQHFWVTPWTFGQGTKVEIK ? Its pKd was 9.43
